Tested on: SK-OV-3 ovarian
MEASUREMENT_NOTES: NCI-60 one-dose screen, 48 h
CONDITIONS_USED: 10 µM unless noted
Compounds without any hit were thinned out: in the full panel of roughly 83,000, 20% have a hit. Activity calls are given as the source filed them. How the source made its calls: active means growth percent below 10; inactive means the rest.
Hello, when you answer, please use one of the following outcomes: yes (1) = active, no (0) = inactive

Here's what some known entries look like.
{"MOLECULE": "Cn1cc([C@@H]2Nc3ccc4[nH]ncc4c3[C@H]3[C@H]4CCC(C4)[C@H]32)c(C(F)(F)F)n1", "TEST_SYSTEM": "SK-OV-3 ovarian", "ANSWER_LABEL": "no (0)"}
{"MOLECULE": "Cn1nc(C(F)(F)F)c(-c2ccc(Cl)c(C(F)(F)F)c2)c1-c1ccc(OCc2ccc(Cl)cc2)cc1O", "TEST_SYSTEM": "SK-OV-3 ovarian", "ANSWER_LABEL": "no (0)"}
{"MOLECULE": "COc1ccc(N2C(=O)CC(c3cc(OC)c(OC)c(OC)c3)C3C2=NC(=O)N3C)cc1 (stereo not drawn)", "TEST_SYSTEM": "SK-OV-3 ovarian", "ANSWER_LABEL": "no (0)"}
{"MOLECULE": "CCCCCCCCCCOC(=O)c1ccccc1C(=O)OCCCC", "TEST_SYSTEM": "SK-OV-3 ovarian", "ANSWER_LABEL": "no (0)"}

Which outcome did this test record for the molecule COc1ccc(/C=C2\SC(=Nc3ccccc3)NC2=O)cc1 ?
yes (1)

Which outcome did this test record for the molecule Nc1ccc(C2c3ccccc3Oc3ccccc32)cc1 ?
no (0)

Which outcome did this test record for the molecule COc1ccc(-c2cn[nH]c2-c2ccc(OC)c(O)c2)cc1 ?
no (0)

Which outcome did this test record for the molecule CC[C@H](C)[C@@H](C(=O)OC)n1cc(CNC(=O)[C@@H](Cc2ccccc2)NC(=O)OCc2ccccc2)nn1 ?
no (0)

Which outcome did this test record for the molecule O=c1oc2ccc(I)cc2c(=O)n1-c1ccc(I)cc1F ?
yes (1)

Which outcome did this test record for the molecule Cc1c(C(=O)OCCO)cc(-c2ccc(Cl)cc2)n1-c1ccc(Cl)cc1Cl ?
no (0)

Which outcome did this test record for the molecule C=C(C)CCC(C)N1CCC(N2CCC(C(=O)NCCc3ccccc3)CC2)CC1 (stereo not drawn) ?
no (0)

Which outcome did this test record for the molecule Nc1no[n+]([O-])c1-c1nnc2c(n1)-c1ccccc1C2=O ?
no (0)

* * *

System: SK-MEL-5 melanoma
MEASUREMENT_NOTES: NCI-60 one-dose screen, 48 h (100 = growth as untreated, 0 = no growth, -100 = all killed)
CONDITIONS_USED: 10 µM unless noted
Compounds without any hit were thinned out: in the full panel of roughly 83,000, 20% have a hit.
PARAMETER: growth (%)
Supply the numeric figure in %, leaving out any unit text.

{"COMPOUND": "Cn1c2c(c(=O)[nH]c1=O)NC1=C(C(=O)c3ccccc31)C1(C=C(O)c3ccccc31)N2 (centres undefined)", "UNITS_SYMBOL": "%", "growth": 111}
{"COMPOUND": "Oc1[nH]c2ccccc2c1N=Nc1nnc2n1N=C(c1ccccc1)CS2", "UNITS_SYMBOL": "%", "growth": 95.6}
{"COMPOUND": "Nc1n[nH]c2ccc([C@@H]3Nc4ccc5[nH]ncc5c4[C@H]4[C@H]5CCC(C5)[C@H]43)cc12", "UNITS_SYMBOL": "%", "growth": 16.9}
{"COMPOUND": "O=C(/C=C/c1cccc(Cl)c1)OCc1ccc2cc1OCC#C/C=C\\C#CCO2", "UNITS_SYMBOL": "%", "growth": 106}
{"COMPOUND": "CCC1=C[C@]2(C3CC(=O)N(c4ccccc4)C3=O)CC(C(C)(C)C)C[C@@H]2[C@@H]2C(=O)N(c3ccccc3)C(=O)[C@H]12 (some centres undefined)", "UNITS_SYMBOL": "%", "growth": 92.1}
{"COMPOUND": "COc1ccccc1CNC(=O)C1c2ccccc2C(=O)N(CC(C)C)C1c1cccs1 (centres undefined)", "UNITS_SYMBOL": "%", "growth": 52.2}
{"COMPOUND": "CNCCNc1nc2ccccc2c2c(=O)c3cc(OC)ccc3sc12", "UNITS_SYMBOL": "%", "growth": 76.4}
{"COMPOUND": "CC1(C)CC2(C)OC2C2(C1)N=NC(=Nc1ccccc1)O2 (centres undefined)", "UNITS_SYMBOL": "%", "growth": 61.5}

Next item in the queue.
Input COc1ccc(Nc2nc(N/N=C/c3ccc(O)cc3)nc(Nc3ccc([N+](=O)[O-])cc3)n2)cc1 , output reported growth.
104
